system: Detroit 562 cells; test: Adherence of rPsaA- or peptide-coated fluospheres (beads) to Detroit 562 cells; assay type: cell-based, human; conditions: 3,100±500 fluospheres per well; 2 hour incubation
List of mean adherence of coated fluospheres (mean FU±SE) values.
readout-name: mean adherence of coated fluospheres (mean FU±SE)

[[record]]
substance = "LVRRFVHRRPHVE-SQ (LVRRFVHRRPHVESQ) [P3, synthetic peptide identified by phage display, reference compound]"
target_system = "Detroit 562 cells"
result_value = "9,780±228 FU"

[[record]]
substance = "RSYQHDLRAYGFWRL [P2, synthetic peptide identified by phage display, reference compound]"
target_system = "Detroit 562 cells"
result_value = "17,195±1,044 FU"

[[record]]
substance = "TVSRVPWTAWAFHGY [P1, synthetic peptide identified by phage display, reference compound]"
target_system = "Detroit 562 cells"
result_value = "52,684±4,354 FU"

[[record]]
substance = "LFVESSVKRRPMKTVSQDTNIPIYAQIF [P4, non-branched synthetic peptide, PsaA amino acid residues 251 to 278 with DD changed to KR]"
target_system = "Detroit 562 cells"
result_value = "20,317±448 FU"


---

test system: Detroit 562 cells; experiment: Competitive inhibition of adherence of rPsaA-coated fluospheres to Detroit 562 cells; type: cell-based, human; details: peptide 10 μg/well
readout-name: inhibition of rPsaA-fluosphere adherence, heterologous competition (%)

[[record]]
substance = "LVRRFVHRRPHVE-SQ (LVRRFVHRRPHVESQ) [P3, synthetic peptide identified by phage display, reference compound]"
result_value = 75.2

[[record]]
substance = "RSYQHDLRAYGFWRL [P2, synthetic peptide identified by phage display, reference compound]"
result_value = 62.2

[[record]]
substance = "LFVESSVKRRPMKTVSQDTNIPIYAQIF [P4, non-branched synthetic peptide, PsaA amino acid residues 251 to 278 with DD changed to KR]"
result_value = 57.6

[[record]]
substance = "TVSRVPWTAWAFHGY [P1, synthetic peptide identified by phage display, reference compound]"
result_value = 88.1


---

tested on: Detroit 562 cells; experiment: Homologous competitive inhibition of adherence of rPsaA- or peptide-coated fluospheres to Detroit 562 cells; assay type: cell-based, human; details: homologous competitor 10 μg/well
readout-name: percent reduction in adherence of homologous coated fluospheres (%)

[[record]]
substance = "LFVESSVKRRPMKTVSQDTNIPIYAQIF [P4, non-branched synthetic peptide, PsaA amino acid residues 251 to 278 with DD changed to KR]"
unit_descriptor = "%"
result_value = 87.6

[[record]]
substance = "TVSRVPWTAWAFHGY [P1, synthetic peptide identified by phage display, reference compound]"
unit_descriptor = "%"
result_value = 60.9

[[record]]
substance = "RSYQHDLRAYGFWRL [P2, synthetic peptide identified by phage display, reference compound]"
unit_descriptor = "%"
result_value = 20.5

[[record]]
substance = "LVRRFVHRRPHVE-SQ (LVRRFVHRRPHVESQ) [P3, synthetic peptide identified by phage display, reference compound]"
unit_descriptor = "%"
result_value = 5.2

